Entries annotated with measured GI50
# Test system: KM12
# test_details: NCI tumour cell line growth inhibition, 48 h
Activity calls are given as the source filed them. Cut-off read from the data, not from the text of the source: active = GI50 up to about 1.1 µM and inactive = higher.

molecule	GI50
COC(=O)C(N)CCCC(N)C(=O)NC(C)C(=O)NC(CCC(=O)NCCCNc1ccc([N+](=O)[O-])c2[nH]c3ccccc3c(=O)c12)C(N)=O (stereo not given)	4.91 µM (inactive)
CC(C)C1=C2CCC3(C)C(CCC4C5C6OCC5(CCC6(C)C)CCC43C)C2(C)CC1 (stereo not given)	16.9 µM (inactive)
C1=Cc2nccc3cc4c(c(c23)N1)OCO4	6.73 µM (inactive)
C=C(CN(CC(=C)C(=O)c1ccccc1)C(C)(C)C)C(=O)c1ccccc1	13 µM (inactive)
CC(=O)c1cccn1/C=C(\OC(=O)OC(C)(C)C)c1ccc[nH]1	46.3 µM (inactive)

====

Entries annotated with measured GI50
# Tested on: TK-10
# test_details: NCI tumour cell line growth inhibition, 48 h
The source made the active and inactive calls. Rule as the data show it: active = GI50 up to about 1.1 µM and inactive = higher. Positions of bridges follow the written chain, without caps; N, C: chain ends. Non-standard residues stand in square brackets, D forms with d. Residues, ends and D or L forms follow the SMILES beside them. *: point of attachment. PhAc = O=C(Cc1ccccc1)*

molecule	GI50
O=C(Cc1ccccc1)N[C@@H]1COC(=O)[C@@H]2CCCN2C(=O)[C@@H]2CCCN2C1=O (PhAc-[dS]-Pro-Pro; ester 1-C)	> 100 µM (inactive)
O=C(COc1ccc(OCC(=O)N2C(=O)CC(=O)N(c3ccccc3)C2=S)cc1)N1C(=O)CC(=O)N(c2ccccc2)C1=S	> 100 µM (inactive)
Cc1cc(=O)cc2sc3c(C)cccc3nc1-2	32.7 µM (inactive)
O=C(CC(=O)N1N=C(c2ccccc2)C(/N=N/c2ccc(C(=O)O)cc2)C1=O)Nc1ccc(F)cc1 (stereo unspecified)	33.1 µM (inactive)
CC(C)n1c(=O)c2nn3c(=O)n(C(C)C)c(=O)c3nn2c1=O	> 100 µM (inactive)
CC1C2(C)OC(=N)C(C#N)(C(c3cccc([N+](=O)[O-])c3)O2)C1(C#N)C#N (stereo unspecified)	42.1 µM (inactive)
C/C=C1/CCC2c3[nH]c4ccccc4c3CCN2C1 (stereo unspecified)	> 100 µM (inactive)
COc1ccc(C2SCC(=O)N2c2ccc(-c3ccc(-n4c(-c5ccccc5)nc5ccccc5c4=O)cc3)cc2)cc1OC (stereo unspecified)	25.2 µM (inactive)
O=S(=O)(O)c1cc(/N=N/c2c(O)ccc3ccccc23)ccc1/C=C/c1ccc(/N=N/c2c(O)ccc3ccccc23)cc1S(=O)(=O)O	> 100 µM (inactive)
CCOC(=O)C1=C(C)N(Cc2ccc(Cl)cc2Cl)C2(O)C=CC(=O)C3C(=O)N(c4ccccc4)C(=O)C132 (stereo unspecified)	2.72 µM (inactive)
Nc1ccccc1/C(O)=C1/CCOC1=O	> 100 µM (inactive)
COc1ccc2c(C)c(Oc3c(Cl)c(Cl)c(O)c(C#N)c3C#N)oc2c1	> 100 µM (inactive)
CCNc1cc2c(cc1O)CC[C@@H]1[C@@H]2CC[C@]2(C)[C@@H](O)CC[C@@H]12	19.5 µM (inactive)
Cc1cccc(NC(=O)/C=C/c2ccc([N+](=O)[O-])cc2)c1	> 41.5 µM (inactive)
CCCCc1ccc(-n2sc3ncc([N+](=O)[O-])cc3c2=O)cc1	21.1 µM (inactive)
O=C(O/N=C1/CCC/C1=C\c1ccccc1)c1ccc(Cl)cc1	38.9 µM (inactive)
Cc1ccc(Nc2n[nH]c(=S)s2)cc1	> 100 µM (inactive)
NC(=O)C(C(N)=O)=C(O)/C(O)=C/C(=O)c1ccccc1	> 100 µM (inactive)
N#Cc1c(-c2ccc(F)cc2)c(-c2ccc(F)cc2)nn(CCO)c1=O	3.36 µM (inactive)
C=C1C[C@@H](O)[C@@H](Br)C(C)(C)[C@@]12C=CC(O)(CBr)CC2 (stereo partly specified)	> 100 µM (inactive)
O=c1c2ccccc2[nH]c2c(O)ccc(O)c12	26.3 µM (inactive)
CN1C(=O)c2ccccc2NC(=O)C12O[C@@H]2c1ccccc1 (stereo partly specified)	> 100 µM (inactive)
NC1CCC[C@H]1O (stereo partly specified)	> 100 µM (inactive)
CC(C)[C@@H]1ON1C(C)c1ccccc1 (stereo partly specified)	> 100 µM (inactive)
CN(/N=C\c1ccnc2ccccc12)c1ccc([N+](=O)[O-])cc1	> 100 µM (inactive)
O=C(COc1ccc(/C=C/C(=O)c2ccc(Cl)cc2)cc1)Nc1c(Cl)cccc1Cl	> 100 µM (inactive)
CC[C@@]1(O)C(=O)OCc2c1cc1n(c2=O)Cc2c-1nc1ccccc1c2/C=N\NC(=O)C(N)Cc1ccc(O)cc1 (stereo partly specified)	> 31.6 µM (inactive)
O=C(CCCCCCCCCCc1ccccc1)C1=C(O)CCCC1=O	42.2 µM (inactive)
[O-][S+](Cc1ccccc1)c1nc2ccccc2nc1-c1cccs1 (stereo unspecified)	14.3 µM (inactive)
O=C1c2ccccc2C(=O)c2c1ccc1c3ccccc3n(-c3ccccc3)c21	40.8 µM (inactive)
Cc1cc(-c2ccccc2)nc(Nc2cc3ccccc3[nH]2)n1	> 100 µM (inactive)
CN(C)CCc1ccnc2nc(-c3ccc4ccccc4c3)cn12	15.7 µM (inactive)
O=S1(=O)c2ccccc2NC(=S)N1c1ccccc1	> 72.4 µM (inactive)
C1=Cc2nccc3cc4c(c(c23)N1)OCO4	14.7 µM (inactive)
N#CC1(C#N)C2C=CC(c3coc4cccc2c34)C1(C#N)C#N (stereo unspecified)	7.05 µM (inactive)
O=C(CC1Sc2ccccc2NC1=O)Nc1cccc(Cl)c1 (stereo unspecified)	41.9 µM (inactive)
CC1(C)OP(=O)(O)C=C1Sc1ccc([N+](=O)[O-])cc1[N+](=O)[O-]	> 100 µM (inactive)
COc1ccc(/C(Cl)=C(\C=O)c2ccc(Cl)c(Cl)c2)cc1OC	19 µM (inactive)
COc1cccc2c1C(=O)c1c(O)c3c(c(O)c1C2=O)C[C@@](O)(C(C)=O)C[C@@H]3OC1OC(C)C(O)C(N)C1Br (stereo partly specified)	0.158 µM (active)
CC(C)C1OC(=O)/C=C/C=C/C=C/C=C/C=C/CC(O)CC(O)CC(O)CC(O)CC(O)CC(O)CC(O)CC(O)/C=C/C1C (stereo unspecified)	> 100 µM (inactive)
COc1ccc(/C=C2\NC(=S)N(CN3CCCCC3)C2=O)cc1	83.6 µM (inactive)

====

# Test system: SNB-78
# test_details: NCI tumour cell line growth inhibition, 48 h
Calls of active or inactive are those of the source. No stated cut-off is given here; in the data, active = GI50 up to about 1.1 µM and inactive = higher.
Entries annotated with measured GI50

molecule	GI50
COc1cc(C(C)O)c[n+](Cc2ccccc2)c1 (stereo unspecified)	> 100 µM (inactive)
CC/C(=C(\c1ccccc1)c1ccc(OCC[N+](C)(C)C)cc1)c1ccccc1 [TAMOXIFEN METHYL IODIDE]	12.2 µM (inactive)
O=C1OC(O)c2cc3c(cc21)OCO3 (stereo unspecified)	> 100 µM (inactive)
CCCSc1nc(COC(=O)NC)c(COC(=O)NC)n1C	63.2 µM (inactive)
CCCCCCCC/C=C\CCCCCCCCCCCC(=O)O	44.4 µM (inactive)
S=C1SCC2CCCN12 (stereo unspecified)	> 100 µM (inactive)
O=[N+]([O-])c1nccn1COCCO	> 100 µM (inactive)
CN(/N=C\c1ccnc2ccccc12)c1ccc([N+](=O)[O-])cc1	> 100 µM (inactive)
COc1ccc(/C(Cl)=C(\C=O)c2ccc([N+](=O)[O-])cc2)cc1	5.6 µM (inactive)
Nc1nc2c3nc(Nc4ccccc4)sc3nc(=S)n2c2sc(Nc3ccccc3)nc12	22.5 µM (inactive)
O=C(O/N=C1/CCC/C1=C\c1ccccc1)c1ccc(Cl)cc1	32.8 µM (inactive)

====

# System: SF-268
# test_details: NCI tumour cell line growth inhibition, 48 h
Activity calls are given as the source filed them. Cut-off read from the data, not from the text of the source: active = GI50 up to about 1.1 µM and inactive = higher.

compound	GI50
CC[C@@H](C)[C@@H]1NC(=O)C(C(C)=O)=C1O	24.1 µM (inactive)
O=C(O)/C=C\C(=O)Nc1ccc2c(c1)-c1ccccc1C2	58.2 µM (inactive)
O=C1C=C2CC[C@H]3[C@@H]4CC[C@H](Oc5c6ccccc6nc6ccccc56)[C@H]4CC[C@@H]3[C@H]2CC1	84.9 µM (inactive)
CCN(CC)C(=O)N1CN(c2ccccc2)C2(CCN(CCCC3(c4ccc(F)cc4)OCCO3)CC2)C1=O	20.6 µM (inactive)
N#Cc1c(N)nc(SCc2ccccc2)c(C#N)c1-c1ccc(O)cc1	18.9 µM (inactive)
C=CCN1CN(C2CCCCC2)CSC1=S	2.32 µM (inactive)
S=C1SCC2CCCN12 (stereo unspecified)	> 100 µM (inactive)
COc1ccc(CC(COS(=O)(=O)c2ccc(C)cc2)NS(=O)(=O)c2ccc(C)cc2)cc1 (stereo unspecified)	12.2 µM (inactive)
O=c1[nH]cc(/N=C/c2cc(Cl)cc(Cl)c2O)c(=O)[nH]1	14.2 µM (inactive)
CC(C)CC(NC=O)C(=O)NC(Cc1ccccc1)NC(=O)CNC(=O)C(C)NC(=O)OC(C)(C)C (stereo unspecified)	> 100 µM (inactive)
NNc1nc2ccccc2s1	> 100 µM (inactive)
